Biological target: Man(a1-3)[Man(a1-6)]Man(a1-6)[Man(a1-3)]Man
Assay: glycan array binding signal (z-score within array); higher = stronger binding
Settings: glycan notation: IUPAC condensed, linker removed
The entries come from a sample that favours the strongest signals as a whole.
measurement_label: glycan array binding signal (z-score)

-- ask Return reported glycan array binding signal (z-score); argument: GNA (Galanthus nivalis), P30617 (protein) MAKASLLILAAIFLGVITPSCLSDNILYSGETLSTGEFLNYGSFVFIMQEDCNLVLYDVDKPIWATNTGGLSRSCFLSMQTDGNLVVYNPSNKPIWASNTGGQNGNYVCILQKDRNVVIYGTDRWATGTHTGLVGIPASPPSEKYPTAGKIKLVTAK
-- reply 3.04

-- ask Next binder up: HFR-3 (Triticum aestivum) (protein) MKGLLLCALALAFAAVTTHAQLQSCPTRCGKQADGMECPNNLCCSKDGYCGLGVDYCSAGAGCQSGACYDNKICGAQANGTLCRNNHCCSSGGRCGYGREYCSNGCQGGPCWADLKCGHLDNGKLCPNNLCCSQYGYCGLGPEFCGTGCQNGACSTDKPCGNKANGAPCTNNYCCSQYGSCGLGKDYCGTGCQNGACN
-- reply 2.17
